# EXPERIMENTAL_SYSTEM: hα7-wt nAChR (Homo sapiens, UniProt P36544)
# Construct: expressed in transfected cells
# Sequence (P36544 23-502): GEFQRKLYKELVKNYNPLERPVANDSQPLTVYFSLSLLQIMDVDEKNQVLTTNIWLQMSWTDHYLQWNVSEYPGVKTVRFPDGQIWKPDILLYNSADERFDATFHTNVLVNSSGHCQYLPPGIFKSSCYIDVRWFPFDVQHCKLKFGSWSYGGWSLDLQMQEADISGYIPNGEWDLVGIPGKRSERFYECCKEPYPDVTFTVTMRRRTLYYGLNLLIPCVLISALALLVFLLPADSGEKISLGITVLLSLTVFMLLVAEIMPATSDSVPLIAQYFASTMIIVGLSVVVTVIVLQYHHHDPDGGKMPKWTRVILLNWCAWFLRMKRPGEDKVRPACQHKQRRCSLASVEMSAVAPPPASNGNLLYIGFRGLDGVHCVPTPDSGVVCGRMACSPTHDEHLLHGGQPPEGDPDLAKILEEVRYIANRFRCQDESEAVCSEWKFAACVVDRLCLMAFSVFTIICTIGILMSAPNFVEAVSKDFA
# EXPERIMENT: Ca2+ flux imaging (FDSS) (Protocol B), potentiation of the choline response
# Assay type: cell-based
# MEASUREMENT_CONTEXT: Ca2+ assay as described in D.1; read-out: % Efficacy
ASSAY_ENDPOINT: Emax (%)

# SMILES_STRUCTURE, READOUT_UNITS, Emax
records = [
    ("CNC(=O)Cn1nc(Nc2cc(F)c(F)c(F)c2)cc1-c1cc(C)nc(C)c1", "%", 616),
]

a = Cc1cc(-c2cc(Nc3cccc(Cl)c3F)nn2CC(=O)NC2CC2)cc(C)n1
b = Cc1cc(-c2cc(Nc3ccc(F)c(F)c3)nn2CC(=O)NC2CC2)cc(C)n1
Please tell me which of the two, a or b , has the higher reported Emax value. Refer to your chosen entry by its label in the reply.
b
(b: 927%, a: 577%)

====

# EXPERIMENTAL_SYSTEM: hα7-wt nAChR (Homo sapiens, UniProt P36544)
# EXPERIMENT: Ca2+ flux imaging (FDSS) (Protocol B), potentiation of the choline response
# MEASUREMENT_CONTEXT: Ca2+ assay as described in D.1; "<5" = activity did not reach a top plateau at maximal concentration
ASSAY_ENDPOINT: EC50 (nM)

# SMILES_STRUCTURE, READOUT_UNITS, EC50
rows = [
    ("CCNC(=O)Cn1nc(Nc2cccc(C(F)(F)F)c2)cc1-c1ccc2c(c1)OCCO2", "nM", 219),
    ("Cc1cc(-c2cc(Nc3ccc(F)c(F)c3)nn2CCC(=O)N(C)C)cc(Cl)n1", "nM", 501),
]

I = CNC(=O)Cn1nc(Nc2ccc3c(c2)OC(F)(F)O3)cc1-c1cc(C)nc(C)c1
II = Cc1cc(-c2cc(Nc3cccc(C(F)(F)F)c3)nn2CC(=O)NC2CCC2)cc(C)n1
III = Cc1cc(-c2cc(Nc3cc(F)c(F)c(F)c3)nn2CC(=O)NC2CC2)cc(C)n1
IV = CNC(=O)Cn1nc(Nc2cc(OC)cc(C(F)(F)F)c2)cc1-c1ccnc(C)c1C
V = Cc1cc(-c2cc(Nc3ccc(F)c(F)c3F)nn2CC(=O)NC2CC2)ccn1
Sort these molecules on EC50 so the largest reading comes first. Provide the labels, sequenced as the question asks.
IV, V, I, II, III
(IV: 6170 nM, V: 1230 nM, I: 813 nM, II: 437 nM, III: 186 nM)

a = Cc1cc(-c2cc(Nc3ccc(F)c(F)c3F)nn2CC(=O)NCC2CC2)ccn1
b = Cc1cc(-c2cc(Nc3ccc4c(c3)OC(F)(F)O4)nn2CC(=O)NC2CC2)cc(C)n1
I'm curious whether a or b has the smaller EC50 number. Which is it? Refer to your chosen entry by its label in the reply.
a

====

# EXPERIMENTAL_SYSTEM: hα7-wt nAChR (Homo sapiens, UniProt P36544)
# EXPERIMENT: Ca2+ flux imaging (FDSS) (Protocol B), potentiation of the choline response
# MEASUREMENT_CONTEXT: Ca2+ assay as described in D.1; "<5" = activity did not reach a top plateau at maximal concentration
ASSAY_ENDPOINT: EC50 (nM)

Illustrative cases are given below, each with its answer.
# SMILES_STRUCTURE, EC50 / nM
measured = [
    ("COc1cc(Cl)cc(Nc2cc(-c3ccnc(C)c3)n(CC(=O)NCC3CC3)n2)c1", 794),
    ("Cc1cc(-c2cc(Nc3ccc(F)c(F)c3)nn2CCC(=O)N(C)C)ccn1", 1000),
    ("CCNC(=O)Cn1nc(Nc2cc(OC)cc(C(F)(F)F)c2)cc1-c1ccnc(C)c1C", 3310),
    ("Cc1ccc(-c2cc(Nc3ccc(F)c(C(F)(F)F)c3)nn2CCC(=O)N(C)C)cn1", 776),
    ("CNC(=O)Cn1nc(Nc2ccc(F)c(C(F)(F)F)c2)cc1-c1ccnc(C)c1", 3390),
    ("Cc1cc(-c2cc(Nc3cccc(C(F)(F)F)c3)nn2CC(=O)NC2CC2)cc(C)n1", 525),
]

a = CC[C@H](O)Cn1nc(Nc2cccc(C(F)(F)F)c2)cc1-c1ccnc(COC)c1
b = COc1cc(Nc2cc(-c3ccnc(C)c3)n(CC(=O)NCC3CC3)n2)cc(C(F)(F)F)c1
Please tell me which of the two, a or b , has the higher reported EC50 value. Refer to your chosen entry by its label in the reply.
a
(a: 1320 nM, b: 813 nM)
